Give measured Na for each item. Keep answers brief.
- Species: Rattus norvegicus
- experimental details: Open TG-GATES - Regimen: Single
- Assay type: toxicity, organism-based, Sprague-Dawley
- Set-up: regimen Single, gender Male, age 6 weeks
- condition parameters: in vivo, po, 0 mg/kg, 24 h, tissue Plasma, route gavage, dose level Control
// return numeric value only (unit: meq/L, not printed)

Reported Na for `CN(C)CCCN1c2ccccc2CCc2ccc(Cl)cc21` : what is it?
140.8

Reported Na for CCOc1ccc(NC(=O)CC(C)O)cc1 (stereo unspecified) : what is it?
143.6

Reported Na for `O=C(CCCN1CCC(O)(c2ccc(Cl)cc2)CC1)c1ccc(F)cc1` : what is it?
138.8

Reported Na for `C[C@@H]1C[C@H]2[C@@H]3CCC4=CC(=O)C=C[C@]4(C)[C@@]3(F)[C@@H](O)C[C@]2(C)[C@@]1(O)C(=O)CO` : what is it?
140

Reported Na for `COC1=CC(=O)C[C@@H](C)[C@]12Oc1c(Cl)c(OC)cc(OC)c1C2=O` : what is it?
141.4

Reported Na for `NNC(=O)c1ccncc1` : what is it?
141.8

Reported Na for CCOC(=O)CCC(=O)O[C@H]1[C@H](O[C@@H]2[C@@H](C)[C@H](O[C@H]3C[C@@](C)(OC)[C@@H](O)[C@H](C)O3)[C@@H](C)C(=O)O[C@H](CC)[C@@](C)(O)[C@H](O)[C@@H](C)C(=O)[C@H](C)C[C@@]2(C)O)O[C@H](C)C[C@@H]1N(C)C [ERYTHROMYCIN ETHYLSUCCINATE] : what is it?
143

Reported Na for COc1ccc2[nH]c([S+]([O-])Cc3ncc(C)c(OC)c3C)nc2c1 (stereo unspecified) : what is it?
140.6

Reported Na for `COc1cc2c(c(OC)c1OC)-c1ccc(OC)c(=O)cc1[C@@H](NC(C)=O)CC2` : what is it?
137.6

Reported Na for `NC(N)=Nc1nc(CSCCC(N)=NS(N)(=O)=O)cs1` : what is it?
139.4

Reported Na for `CC1=C(/C=C/C(C)=C/C=C/C(C)=C/CO)C(C)(C)CCC1` : what is it?
141.2

Reported Na for CCCNC(=O)NS(=O)(=O)c1ccc(Cl)cc1 [CHLORPROPAMIDE] : what is it?
142.6

Reported Na for `CN(C)CCN(Cc1cccs1)c1ccccn1` : what is it?
142.4

Reported Na for `CC/C(=C(\c1ccccc1)c1ccc(OCCN(C)C)cc1)c1ccccc1` : what is it?
142.4

Reported Na for `CN1C(=O)CN=C(c2ccccc2)c2cc(Cl)ccc21` : what is it?
138.6

Reported Na for `Cc1ccc(C)c(OCCCC(C)(C)C(=O)O)c1` : what is it?
142

----------
- Species: Rattus norvegicus
- experimental details: Open TG-GATES - Regimen: Single
- Assay type: toxicity, organism-based, Sprague-Dawley
- Set-up: regimen Single, gender Male, age 6 weeks
- condition parameters: in vivo, po, 300 mg/kg, 6 h, tissue Blood, route gavage, dose level Middle
Give measured Mono for each item. Keep answers brief.
// return numeric value only (unit: %, not printed)

Reported Mono for NC(N)=Nc1nc(CSCCC(N)=NS(N)(=O)=O)cs1 [FAMOTIDINE] : what is it?
2.4

Reported Mono for CCOC(=O)CCC(=O)O[C@H]1[C@H](O[C@@H]2[C@@H](C)[C@H](O[C@H]3C[C@@](C)(OC)[C@@H](O)[C@H](C)O3)[C@@H](C)C(=O)O[C@H](CC)[C@@](C)(O)[C@H](O)[C@@H](C)C(=O)[C@H](C)C[C@@]2(C)O)O[C@H](C)C[C@@H]1N(C)C [ERYTHROMYCIN ETHYLSUCCINATE] : what is it?
3.8

Reported Mono for COc1ccc2[nH]c([S+]([O-])Cc3ncc(C)c(OC)c3C)nc2c1 (centres undefined) [OMEPRAZOLE] : what is it?
3.8

Reported Mono for COC1=CC(=O)C[C@@H](C)[C@]12Oc1c(Cl)c(OC)cc(OC)c1C2=O [GRISEOFULVIN] : what is it?
3.6
